From: patent US20230399287A1

Listing of entries alongside the reported half-life at 10 μM.
# test: Hepatocyte stability assay (human)
# Assay type: in vitro ADME
# measurement parameters: human, cryopreserved hepatocytes, 10 μM compound, 60 min, read-out: T½

Some solved entries appear below for comparison.
chemical string	half-life at 10 μM
C=C(CC(=O)OCc1ccc(C(F)(F)F)cc1)C(=O)O	> 7.67 h
C=C(CC(=O)OC1(c2ccc(Cl)cn2)CCC1)C(=O)O	> 7.67 h

Attention now turns to another entry.
Ask | Need half-life at 10 μM, item C=C(CC(=O)O[C@]1(c2ccc(C(F)(F)F)cc2)C[C@H](C#N)C1)C(=O)O
Reply | > 7.67 h

---

# Test system: hepatocytes
# test: Hepatocyte stability assay (mouse)
# Assay type: in vitro ADME
# measurement parameters: 10 μM compound, 60 min
measure: Clint (μL min^−1 10^−6 cells)

Some solved entries appear below for comparison.
molecule	Clint (μL min^−1 10^−6 cells)
C=C(CC(=O)OC1(c2ccc(C(F)(F)F)cc2)CC(F)(F)C1)C(=O)O	20
C=C(CC(=O)OC1(c2ccc(C(F)(F)F)nn2)CCC1)C(=O)O	4
C=C(CC(=O)OC1(c2ccc(C(F)(F)F)cc2)CSC1)C(=O)O	25
C=C(CC(=O)O[C@]1(c2ccc(C(F)(F)F)cc2)C[C@H](C)C1)C(=O)O	8

[a] C=C(CC(=O)OC1(c2ccc(C(F)(F)F)cc2)CC2(CCC2)C1)C(=O)O
[b] C=C(CC(=O)OC1(c2ccc(C(F)(F)F)c(Cl)c2)CCC1)C(=O)O
[c] C=C(CC(=O)OC1(c2ccc(C(F)(F)F)cc2)CC(C)C1)C(=O)O (single isomer, unassigned)
Ask | Sort (3 molecules) by Clint: min first. Please list the labels in the order you were asked to rank them.
Reply | c, b, a
(c: 9 μL min^−1 10^−6 cells, b: 42 μL min^−1 10^−6 cells, a: 73 μL min^−1 10^−6 cells)

---

# System: IL-6
# test: THP-1 AlphaLISA IL-6 cytokine assay
# Assay type: cell-based
# measurement parameters: Homo sapiens, THP-1, differentiated THP-1 cells, LPS 24 hr then Nigericin 1 hour
pIC50: −log10 of the molar value.
measure: pIC50

chemical string	pIC50
C=C(CC(=O)OC1(c2ccc(Cl)cc2)CCC1)C(=O)O	4.19

[I] C=C(CC(=O)OC1(c2ccc(C(F)(F)F)cc2)CCC1)C(=O)O
[II] C=C(CC(=O)OC1(c2ccc(C#CC(F)(F)F)cc2)CCC1)C(=O)O
Ask | Higher pIC50 between I and II ? Write down the label of the entry you select.
Reply | II

---

# test: Hepatocyte stability assay (human)
# Type: in vitro ADME
# measurement parameters: human, cryopreserved hepatocytes, 10 μM compound, 60 min, read-out: T½
measure: half-life at 10 μM (h)

Some solved entries appear below for comparison.
chemical string	test result
C=C(CC(=O)OC1(c2ccc(Cl)cc2)CCC1)C(=O)O	2.07
C=C(CC(=O)OC1(c2ccc(C(F)(F)F)cc2)CCC1)C(=O)O	1.93
C=C(CC(=O)OC1(c2ccc(C(F)(F)F)cc2)CCCC1)C(=O)O	1.1

[a] C=C(CC(=O)OC1(c2ccc(C(F)(F)F)cc2)CC(F)(F)C1)C(=O)O
[b] C=C(C(=O)O)C1(C(=O)OC2(c3ccc(C(F)(F)F)cc3)CCC2)CC1
[c] C=C(CC(=O)OC1(c2ccc(C(F)(F)F)cc2)CC2(CC2)C1)C(=O)O
Ask | Sort (3 compounds) by half-life at 10 μM: min first. Please list the labels in the order you were asked to rank them.
Reply | b, a, c
(b: 1.08 h, a: 2.38 h, c: 3.58 h)

---

# System: IL-6
# test: THP-1 AlphaLISA IL-6 cytokine assay
# Type: cell-based
# measurement parameters: Homo sapiens, THP-1, differentiated THP-1 cells, LPS 24 hr then Nigericin 1 hour
measure: IC50

Some solved entries appear below for comparison.
compound	IC50
C=C(C(=O)O)C1(C(=O)OC2(c3ccc(C(F)(F)F)cc3)CCC2)CC1	> 100 µM
C=C(CC(=O)OC1(c2ccc(OC(F)(F)F)cc2)CCC1)C(=O)O	> 100 µM

Attention now turns to another entry.
Ask | Need IC50, item C=C(CC(=O)OC1(c2ccc(-c3ccc(C(F)(F)F)cc3)cc2)CCC1)C(=O)O
Reply | 3.7 µM

---

# Tested on: hepatocytes
# test: Hepatocyte stability assay (mouse)
# Type: in vitro ADME
# measurement parameters: 10 μM compound, 60 min
Listing of entries alongside the reported Clint.

chemical string	test result
C=C(CC(=O)OC1(c2ccc(C(F)(F)F)cn2)CCC1)C(=O)O	<3 μL min^−1 10^−6 cells
C=C(CC(=O)OC1(c2ccc(Cl)cn2)CCC1)C(=O)O	<3 μL min^−1 10^−6 cells
C=C(CC(=O)OC1(c2ccc(-c3ccc(C(F)(F)F)cc3)cc2)CCC1)C(=O)O	>460 μL min^−1 10^−6 cells

Attention now turns to another entry.
Ask | Need Clint, item C=C(CC(=O)OC1(c2ccc(C(F)(F)F)cn2)COC1)C(=O)O
Reply | <3 μL min^−1 10^−6 cells

---

Listing of entries alongside the reported half-life at 10 μM.
# test: Hepatocyte stability assay (human)
# Type: in vitro ADME
# measurement parameters: human, cryopreserved hepatocytes, 10 μM compound, 60 min, read-out: T½

Some solved entries appear below for comparison.
chemical string	half-life at 10 μM
C=C(CC(=O)OC1(c2ccc(Br)cc2)COC1)C(=O)O	> 7.67 h
C=C(CC(=O)OC(C)(C)c1ccc(C(F)(F)F)cn1)C(=O)O	> 7.67 h
C=C(CC(=O)OC1(c2ccc(C(F)(F)F)cc2)COC1)C(=O)O	> 7.67 h

Ask | Need half-life at 10 μM, item C=C(CC(=O)O[C@]1(c2ccc(C(F)(F)F)cc2)C[C@H](C)C1)C(=O)O
Reply | > 7.67 h

Ask | Need half-life at 10 μM, item C=C(CC(=O)OC1(c2ccc(C(F)(F)F)nc2)CCC1)C(=O)O
Reply | > 7.67 h

Ask | Need half-life at 10 μM, item C=C(CC(=O)OC1(c2ccc(C(F)(F)F)cn2)COC1)C(=O)O
Reply | > 7.67 h

---

# Test system: IL-6
# test: THP-1 AlphaLISA IL-6 cytokine assay
# Format: cell-based
# measurement parameters: Homo sapiens, THP-1, differentiated THP-1 cells, LPS 24 hr then Nigericin 1 hour
measure: IC50

Some solved entries appear below for comparison.
molecule	IC50
C=C(CC(=O)OC1(c2ccc(S(F)(F)(F)(F)F)cc2)CCC1)C(=O)O	62.1 µM
C=C(CC(=O)O[C@]1(c2ccc(C(F)(F)F)cc2)C[C@H](C)C1)C(=O)O	> 100 µM
C=C(CC(=O)OC1(c2ccc(C(F)F)cc2)CCC1)C(=O)O	48.7 µM
C=C(CC(=O)OCc1ccc(C(F)(F)F)c(F)c1)C(=O)O	> 100 µM
C=C(CC(=O)OC1(c2ccc(C(F)(F)F)cc2)CC(F)(F)C1)C(=O)O	> 100 µM

Ask | Need IC50, item C=C(CC(=O)OC1(c2ccc(Br)cn2)CCC1)C(=O)O
Reply | > 100 µM

Ask | Need IC50, item C=C(CC(=O)OC1(c2ccc(C(F)(F)F)cc2)CCCC1)C(=O)O
Reply | > 100 µM

Ask | Need IC50, item C=C(CC(=O)OC1(c2ccc(C(C)(F)F)cc2)CCC1)C(=O)O
Reply | > 68.1 µM

Ask | Need IC50, item C=C(CC(=O)O[C@]1(c2ccc(C(F)(F)F)cc2)C[C@H](C#N)C1)C(=O)O
Reply | > 31.6 µM

Ask | Need IC50, item C=C(CC(=O)O[C@@H](C)c1ccc(C(F)(F)F)cc1)C(=O)O
Reply | > 56.2 µM

Ask | Need IC50, item C=C(CC(=O)OC1(c2ccc(-c3ccc(F)cc3)cc2)CCC1)C(=O)O
Reply | 21.5 µM

Ask | Need IC50, item C=C(CC(=O)OC1(c2ccc(C(F)(F)F)cn2)CC1)C(=O)O
Reply | > 42.2 µM

Ask | Need IC50, item C=C(CC(=O)OC1(c2ccc(Br)cc2)COC1)C(=O)O
Reply | > 100 µM

Ask | Need IC50, item C=C(CC(=O)OC1(c2ccc(C(F)(F)F)cc2)CC(C(F)(F)F)C1)C(=O)O (single isomer, unassigned)
Reply | > 100 µM

Ask | Need IC50, item C=C(CC(=O)OC1(c2cnc(C(F)(F)F)cn2)CCC1)C(=O)O
Reply | > 31.6 µM

Ask | Need IC50, item C=C(CC(=O)OC1(c2ccc(C(F)(F)F)cc2)CSC1)C(=O)O
Reply | > 100 µM

Ask | Need IC50, item C=C(C(=O)O)C(C)(C)C(=O)OC1(c2ccc(C(F)(F)F)cc2)CCC1
Reply | > 100 µM

Ask | Need IC50, item C=C(CC(=O)OC)C(=O)OC [dimethyl itaconate, reference compound]
Reply | 100 µM

Ask | Need IC50, item C=C(CC(=O)OC1(c2ccc(C(F)(F)F)cc2)CS(=O)(=O)C1)C(=O)O
Reply | > 100 µM

Ask | Need IC50, item C=C(CC(=O)OC1(c2ccc(C(F)(F)F)cc2Cl)CCC1)C(=O)O
Reply | > 100 µM

Ask | Need IC50, item C=C(CC(=O)OC1(c2ccc(C(F)(F)F)c(Cl)c2)CCC1)C(=O)O
Reply | 82.6 µM

Ask | Need IC50, item C=C(CC(=O)O[C@H](C)c1ccc(C(F)(F)F)cc1)C(=O)O
Reply | > 56.2 µM
